Tested on: RPMI-8226 leukemia
run-description: NCI-60 one-dose screen, 48 h (100 = growth as untreated, 0 = no growth, -100 = all killed)
study-conditions: 10 µM unless noted
About 83,000 compounds went through this panel and 20% of them were active in at least one assay; those are over-represented in the sample as a whole.
Item-by-item account of growth

{"molecule": "NC(N)=NC1CCCCC1", "growth (%)": 85.6}
{"molecule": "O=C(N/N=C/c1ccc([N+](=O)[O-])cc1)c1ccccc1Nc1ccnc(C(F)(F)F)c1", "growth (%)": 11.2}
{"molecule": "CCOC(=O)C(CCCCC(NC(C)=O)(C(=O)OCC)C(=O)OCC)(NC(C)=O)C(=O)OCC", "growth (%)": 103}
{"molecule": "CC(C)(C)c1nn(-c2ccccc2)c2c1C(=O)CSC(c1ccc3c(c1)OCO3)N2 (stereo not given)", "growth (%)": 102}
{"molecule": "CN(C)c1nc(-c2cccs2)n2nc(-c3ccco3)cc2n1", "growth (%)": 73.2}
{"molecule": "O=C(/C=C/c1ccccc1)c1c[nH]c2ccccc2c1=O", "growth (%)": -15.9}
{"molecule": "CCSc1cnnc2ccccc12", "growth (%)": 111}
{"molecule": "CCN(CC)c1ccc2c(cc1=O)[C@@H](NC(C)=O)CCc1cc(OC)c(OC)c(OC)c1-2", "growth (%)": 14.9}
{"molecule": "COc1cccc(N2CCN(c3ncnc4cc[nH]c34)CC2)c1", "growth (%)": 35.4}
{"molecule": "C=C1C(=O)O[C@H]2[C@H]1CC/C(COC(=O)NCc1ccc(Cn3c(=O)sn(CCCl)c3=O)cc1)=C\\CC[C@@]1(C)O[C@@H]21", "growth (%)": 2.37}

---

Tested on: MDA-MB-231 breast
run-description: NCI-60 one-dose screen, 48 h (100 = growth as untreated, 0 = no growth, -100 = all killed)
study-conditions: 10 µM unless noted
Compounds without any hit were thinned out: in the full panel of roughly 83,000, 20% have a hit.
Threshold 80%. growth below it: 1. growth at it or above: -1.

{"compound": "O=C(CSc1nc2c(n1Nc1ccccc1)-c1ccccc1SC2)Nc1nccs1", "classification": -1}
{"compound": "CCN(CC)CCCC(C)Nc1ccnc2ccc(Oc3ccccc3)cc12 (centres undefined)", "classification": 1}
{"compound": "O=S(=O)(Nc1ccc2ccccc2c1)N1CCCCC1", "classification": 1}
{"compound": "O=C(O)c1cc2cc(OCc3ccccc3)ccc2[nH]1", "classification": -1}
{"compound": "COc1ccc(C(=O)N2N=C(c3ccc(F)cc3)CC2c2cn(-c3ccccc3)nc2-c2ccccc2)cc1 (centres undefined)", "classification": 1}
{"compound": "COc1cc(/C=C\\c2cc(/C=C\\c3ccc(O)c(OC)c3)n(C(=O)Nc3ccc(C(F)(F)F)cc3)n2)ccc1O", "classification": 1}
{"compound": "CCNC(=O)c1ccc2c(c1)nc(-c1ccc(Cl)cc1)n2-c1cc(C(C)(C)C)[nH]n1", "classification": 1}
{"compound": "C=C[C@H]1CCC/C=C/[C@@H]2C[C@H](O)C[C@H]2[C@H](O)/C=C/C(=O)O1", "classification": 1}
{"compound": "CN(C)CCNC(=O)n1cc(-c2ccncc2)c(-c2cc(O)cc(Cl)c2)n1", "classification": -1}
{"compound": "COc1ccc(Nc2nc(N)nc3c(=O)[nH]ccc23)cc1", "classification": -1}
{"compound": "CC(C)(C)c1nn(-c2ccccc2)c2c1C(=O)CSC(c1ccccc1Cl)N2 (centres undefined)", "classification": 1}
{"compound": "CN1C(=O)N(C)C2C1NN=c1s/c(=C\\c3ccsc3)c(=O)n12 (centres undefined)", "classification": 1}
{"compound": "C=CCN(CC#N)CC=C", "classification": -1}
{"compound": "CCN(CC)CCCCCCCCNc1c2ccc(Cl)cc2nc2ccc(OC)cc12", "classification": 1}
{"compound": "NS(=O)(=O)c1ccc(CCn2c(SCC(=O)N/N=C/c3cccnc3)nc3ccccc3c2=O)cc1", "classification": -1}
{"compound": "CC(=O)O[C@H]1CC[C@]2(C)[C@H]3CC=C4[C@@H]5CC(C)(C)CC[C@]5(C(=O)OCC(COC(=O)C(Cl)Cl)(COC(=O)C(Cl)Cl)NC(=O)C(Cl)Cl)CC[C@@]4(C)[C@]3(C)CC[C@H]2C1(C)C", "classification": -1}
{"compound": "O=P(O)(O)C(O)(Cc1cccnc1)P(=O)(O)O", "classification": -1}
{"compound": "CC(=O)Cc1ccccn1", "classification": -1}
{"compound": "C=C1C(=O)O[C@H]2[C@H]1CC/C(COC(=O)N[C@@H](Cc1c[nH]c3ccccc13)C(=O)OC)=C\\CC[C@@]1(C)O[C@@H]21", "classification": 1}
{"compound": "CCN(CC)c1ccc(/C=N/NC(=O)c2ccc(S(C)(=O)=O)cc2)c(O)c1", "classification": 1}
{"compound": "Cc1cc(C#Cc2ccc(C(C)(C)C)cc2)ccc1-n1c(/C=C/c2c(Cl)cccc2Cl)nc2ccccc2c1=O", "classification": -1}
{"compound": "Cc1ccc(C(CN(C)C)C(=O)c2ccccc2)cc1 (centres undefined)", "classification": 1}
{"compound": "O=C(c1ccc(OCCN2CCCCC2)cc1)c1c(-c2ccc(O)cc2)sc2cc(O)ccc12", "classification": 1}
{"compound": "O=C(/C=C/c1ccco1)c1ccccc1O", "classification": -1}
{"compound": "N=c1nc(N2CCCCC2)cc(N)n1O", "classification": -1}
{"compound": "CC(C)CCSc1nc(-c2ccc(F)cc2)c(C#N)c(N2CCN(C)CC2)n1", "classification": 1}
{"compound": "CN(C)CC(=O)c1ccc2cc(Br)c3ccccc3c2c1", "classification": 1}
{"compound": "O=C(CCCCCCN1CC(=O)N2[C@@H](c3ccc(Cl)c(Cl)c3)c3[nH]c4ccccc4c3C[C@H]2C1=O)NO", "classification": 1}
{"compound": "O=C(Nc1ccc(-n2ccc3c(NC(=O)c4ccccc4)nccc32)cc1)c1ccc(N2CCOCC2)c(C(F)(F)F)c1", "classification": 1}
{"compound": "Cc1ccc(Nc2cc(Cl)c([N+](=O)[O-])cc2[N+](=O)[O-])cc1", "classification": 1}
{"compound": "CCOC(=O)Cc1cc(Br)c(OCc2ccccc2)c(Br)c1", "classification": -1}
{"compound": "COc1cc(C2CC(c3ccc(C)cc3)=NN2C=O)ccc1Oc1ccnc2cc(Cl)ccc12 (centres undefined)", "classification": 1}
{"compound": "COc1cc(OC)c(Cl)cc1N", "classification": -1}
{"compound": "CN1C(=O)C(C(=O)/C=C/c2ccccc2C(=O)O)C(=O)N(C)C1=O", "classification": -1}
{"compound": "CCCCOC(=O)c1cc(O)c(O)c(O)c1", "classification": 1}
{"compound": "COc1cc(C)c(Cl)cc1C1=NN(c2ccc(S(N)(=O)=O)cc2)C(/C=C/c2ccccc2)C1 (centres undefined)", "classification": -1}
{"compound": "O=C(CCl)N1c2ccccc2Oc2ccc3ccccc3c21", "classification": 1}
{"compound": "CC(C)(C)[Si](C)(C)OC1[C@@H](O[Si](C)(C)C(C)(C)C)[C@@H](CNC(=O)NC(=O)NC(=O)CI)O[C@H]1n1cnc2c(NC(=O)Nc3ccccc3)ncnc21 (some centres undefined)", "classification": 1}

---

Tested on: SF-539 CNS
run-description: NCI-60 one-dose screen, 48 h (100 = growth as untreated, 0 = no growth, -100 = all killed)
study-conditions: 10 µM unless noted
Compounds without any hit were thinned out: in the full panel of roughly 83,000, 20% have a hit.
Threshold 70%: growth strictly smaller gives Met, otherwise Not met.

{"query-smiles": "Oc1ccccc1-c1nnc(COc2ccc(Cl)cc2Cl)o1", "subject-of-test": "SF-539 CNS", "classification": "Met"}
{"query-smiles": "c1ccc(-c2ccc(-c3ccccc3)[nH]2)cc1", "subject-of-test": "SF-539 CNS", "classification": "Not met"}
{"query-smiles": "CCOC(=O)c1ccc2c(c1)nc(-c1ccc(Cl)cc1)n2-c1cc(C(C)(C)C)[nH]n1", "subject-of-test": "SF-539 CNS", "classification": "Met"}
{"query-smiles": "Cc1ccc(NC(=O)c2sc3nc4c(cc3c2N)C(=O)CCC4)cc1Cl", "subject-of-test": "SF-539 CNS", "classification": "Not met"}
{"query-smiles": "Cc1[nH]c2ccccc2c1C1=CC(=O)C=CC1=O", "subject-of-test": "SF-539 CNS", "classification": "Not met"}

---

Test system: DU-145 prostate
run-description: NCI-60 one-dose screen, 48 h (100 = growth as untreated, 0 = no growth, -100 = all killed)
study-conditions: 10 µM unless noted
Method: Cells are grown in 96 well plates and exposed to the test compound for 48 hours. Compounds are tested at a single concentration, which is 10^-5 M for most compounds. The reported endpoint is percent growth (GI% or GIPRCNT), where numbers from 0 - 100% represent growth inhibition, and numbers from -100% - 0 represent cell death. For example, a value of 40 represents 60% growth inhibition. A value of 0 means no net growth occurred over the course of the experiment. […]
This is part of a sample that, as a whole, favours compounds with a hit. Of some 83,000 tested, about 20% had one in any assay. Calls of active or inactive are those of the source. The calls were made as follows: active = growth percent below 10; inactive = the rest.
# growth per entry
measurement-label: growth

{"compound": "C=C1C(=O)O[C@H]2[C@H]1CC/C(COC(=O)NCc1ccc(Cn3c(=O)sn(CCCl)c3=O)cc1)=C\\CC[C@@]1(C)O[C@@H]21", "result": "36.9% (inactive)"}
{"compound": "COc1ccc(/C=N/NC(N)=S)c(OC)n1", "result": "113% (inactive)"}
{"compound": "CCC(=O)OCc1ccc(OC)cc1", "result": "123% (inactive)"}
{"compound": "Fc1cc(-c2cnc3nonc3n2)c(Cl)cc1Cl", "result": "85.3% (inactive)"}
{"compound": "CN1CCCN(CCNc2nccc(-c3c(-c4cccc(O)c4)nc4sccn34)n2)S1(=O)=O", "result": "54.7% (inactive)"}
{"compound": "O=C(Cc1ccc([N+](=O)[O-])cc1)Oc1ccccc1", "result": "129% (inactive)"}
{"compound": "COc1cc(Nc2ncccc2/C=C/C(=O)c2cc(OC)c(OC)c(OC)c2)cc(OC)c1OC", "result": "80.6% (inactive)"}
{"compound": "Cc1ccccc1C1CC(=O)c2ccccc2C1C (stereo unspecified)", "result": "109% (inactive)"}
{"compound": "COc1cnc2c(c1)C(=O)c1c-2n(CCCN2CCNCC2)c(=O)c2cc(Cl)ccc12", "result": "-95.8% (active)"}
{"compound": "c1csc(-c2cnc3nonc3n2)c1", "result": "108% (inactive)"}
{"compound": "Nc1c(N)c2ccccc2c2ccccc12", "result": "111% (inactive)"}
